Just for reference, patent US20120095193A1 is where these values come from.

Molecular target: T1, human ADAMTS5 (human, UniProt Q9UNA0 262-622, limits assumed)
T1 construct: Octet and ELISA used 'recombinant human ADAMTS5'; also called recombinant human ADAMTS5; ADAMTS5 (R&D Systems 2198-AD)
T1 sequence: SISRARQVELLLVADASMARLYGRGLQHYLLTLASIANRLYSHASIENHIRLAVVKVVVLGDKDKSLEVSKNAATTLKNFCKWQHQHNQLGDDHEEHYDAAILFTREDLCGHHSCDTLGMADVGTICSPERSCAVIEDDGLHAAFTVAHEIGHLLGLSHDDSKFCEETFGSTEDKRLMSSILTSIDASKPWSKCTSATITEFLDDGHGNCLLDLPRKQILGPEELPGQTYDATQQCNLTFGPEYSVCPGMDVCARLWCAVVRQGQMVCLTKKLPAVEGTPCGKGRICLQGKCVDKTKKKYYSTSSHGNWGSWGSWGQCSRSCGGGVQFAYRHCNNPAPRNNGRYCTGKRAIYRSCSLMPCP
Experiment: Biacore, mAb from culture supernatant captured on anti-human IgG, ADAMTS5 (R&D 2198-AD) at 64 nM, 1:1 fit
In this section, each of the binders is paired with its reported pKd.
Scale: negative log10 of molar concentration, which is what pKd denotes.

BPC1650 (antibody, human IgG1, kappa, V domains shown, Humanized, human gamma 1 / kappa; also called 7B4 H2L2) VH: EVQLVESGGGLVQPGGSLRLSCAASGFTSSDAWMDWVRQAPGKGLEWVAEIRNKANNHARHYAESVKGRFTISRDNAKNSLYLQMNSLRAEDTAVYYCARTYYYGSSYGYCDVWGQGTLVTVSS VL: DIQMTQSPSSLSASVGDRVTITCRTSENIYSYLAWYQQKPGKAPQLLVYNAKTLAEGVPSRFSGSGSGTDFTLTISSLQPEDFATYYCQHHYGTPWTFGQGTKLEIKR = 8.96

Quick one: pKd for BPC1646 (antibody, human IgG1, kappa, V domains shown, Humanized, human gamma 1 / kappa; also called 7B4 H5L1) VH: EVQLVESGGGLVQPGGSLRLSCAASGFTSSDAWMDWVRQAPGKGLEWVAEIRNKANNHARHYAESVKGRFTISRDNAKNSVYLQMNSLRAEDTAVYYCTRTYYYGSSYGYCDVWGQGTLVTVSS VL: DIQMTQSPSSLSASVGDRVTITCRTSENIYSYLAWYQQKPGKAPKLLVYNAKTLAEGVPSRFSGSGSGTDFTLTISSLQPEDFATYYCQHHYGTPWTFGQGTKLEIKR ?
8.99
